Assay: acute oral toxicity to male rat (LD50)
Conditions: in vivo
Measured Endpoint: LD50

*Q* What measured LD50 goes with CCCOC(=O)C(C(=O)OCCC)=C1SC2C(S1)N(C)CCN2C (stereo not shown) ?
*A* > 1000 mg/kg
